System: UniProtKB P29274 | Read-out: AC50
Sequence (P29274 whole entry): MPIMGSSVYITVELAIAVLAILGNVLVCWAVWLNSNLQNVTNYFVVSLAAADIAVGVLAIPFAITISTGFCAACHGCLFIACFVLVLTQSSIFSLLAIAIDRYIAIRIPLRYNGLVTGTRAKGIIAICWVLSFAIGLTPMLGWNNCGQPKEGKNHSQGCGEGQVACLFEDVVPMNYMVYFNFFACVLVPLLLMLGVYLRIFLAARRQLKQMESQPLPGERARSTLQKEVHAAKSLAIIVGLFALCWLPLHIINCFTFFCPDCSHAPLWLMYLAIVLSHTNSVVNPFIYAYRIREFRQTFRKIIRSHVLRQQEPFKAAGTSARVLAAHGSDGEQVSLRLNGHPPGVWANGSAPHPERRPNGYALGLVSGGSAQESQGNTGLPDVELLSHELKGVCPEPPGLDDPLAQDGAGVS

Molecule	AC50
OC1(c2ccc(Cl)cc2)c2ccccc2C2=NCCN21 (stereo not given) [MAZINDOL]	> 30 µM
C#C[C@]1(OC(C)=O)CC[C@H]2[C@@H]3CCC4=C/C(=N/O)CC[C@@H]4[C@H]3CC[C@@]21CC [NORGESTIMATE]	> 30 µM
O=C1C(CC[S+]([O-])c2ccccc2)C(=O)N(c2ccccc2)N1c1ccccc1 (stereo not given) [SULFINPYRAZONE]	> 10 µM
Cc1ncc2n1-c1ccc(Cl)cc1C(c1ccccc1F)=NC2 [MIDAZOLAM]	> 30 µM
CN(C)CCC[C@@]1(c2ccc(F)cc2)OCc2cc(C#N)ccc21 [ESCITALOPRAM]	> 30 µM
COc1ccc(CC2c3cc(OC)c(OC)cc3CC[N+]2(C)CCC(=O)OCCCCCOC(=O)CC[N+]2(C)CCc3cc(OC)c(OC)cc3C2Cc2ccc(OC)c(OC)c2)cc1OC (stereo not given)	> 30 µM
OCc1cc(C(O)CNCCCCCCOCCCCc2ccccc2)ccc1O (stereo not given) [SALMETEROL]	> 30 µM
CO[C@H]1/C=C/O[C@@]2(C)Oc3c(C)c(O)c4c(O)c(c(/C=N/N5CCN(C)CC5)c(O)c4c3C2=O)NC(=O)/C(C)=C\C=C\[C@H](C)[C@H](O)[C@@H](C)[C@@H](O)[C@@H](C)[C@H](OC(C)=O)[C@@H]1C [RIFAMPIN]	13 µM
CC12CC3CC(C)(C1)CC(N)(C3)C2 [MEMANTINE]	> 30 µM
CCC(C)C1(CC)C(=O)NC(=O)NC1=O (stereo not given) [BUTABARBITAL]	> 30 µM
COc1cc2nccc(Oc3ccc(NC(=O)C4(C(=O)Nc5ccc(F)cc5)CC4)cc3)c2cc1OC [CABOZANTINIB]	> 30 µM
COc1cc2c(cc1OC)C(CCc1ccc(Cl)cc1)N(C)CC2 (stereo not given) [METHOPHOLINE]	> 30 µM
OC[C@H]1O[C@@](CO)(O[C@H]2O[C@H](CO)[C@@H](O)[C@H](O)[C@H]2O)[C@@H](O)[C@@H]1O [SUCROSE]	> 30 µM
COc1ccc(-c2noc(CC(=O)O)c2-c2ccc(OC)cc2)cc1 [MOFEZOLAC]	> 30 µM
CC(=O)O[C@H](CC(=O)[O-])C[N+](C)(C)C [ACETYLCARNITINE]	> 30 µM
CCCCC1C(=O)N(c2ccccc2)N(c2ccccc2)C1=O [PHENYLBUTAZONE]	> 30 µM
Nc1cc(-c2ccncc2)c[nH]c1=O [INAMRINONE]	> 30 µM
CCC[C@H](NC(=O)[C@@H]1[C@H]2CCC[C@H]2CN1C(=O)[C@@H](NC(=O)[C@@H](NC(=O)c1cnccn1)C1CCCCC1)C(C)(C)C)C(=O)C(=O)NC1CC1	> 30 µM
C[C@]12C=CC(=O)N[C@@H]1CC[C@@H]1[C@@H]2CC[C@]2(C)[C@@H](C(=O)Nc3cc(C(F)(F)F)ccc3C(F)(F)F)CC[C@@H]12 [DUTASTERIDE]	> 10 µM
Clc1ccc2c(N3CCN(CCCN4CCN(c5ccnc6cc(Cl)ccc56)CC4)CC3)ccnc2c1 [PIPERAQUINE]	> 30 µM

----------
System: UniProtKB P23975 | Read-out: AC50
Sequence (P23975 whole entry): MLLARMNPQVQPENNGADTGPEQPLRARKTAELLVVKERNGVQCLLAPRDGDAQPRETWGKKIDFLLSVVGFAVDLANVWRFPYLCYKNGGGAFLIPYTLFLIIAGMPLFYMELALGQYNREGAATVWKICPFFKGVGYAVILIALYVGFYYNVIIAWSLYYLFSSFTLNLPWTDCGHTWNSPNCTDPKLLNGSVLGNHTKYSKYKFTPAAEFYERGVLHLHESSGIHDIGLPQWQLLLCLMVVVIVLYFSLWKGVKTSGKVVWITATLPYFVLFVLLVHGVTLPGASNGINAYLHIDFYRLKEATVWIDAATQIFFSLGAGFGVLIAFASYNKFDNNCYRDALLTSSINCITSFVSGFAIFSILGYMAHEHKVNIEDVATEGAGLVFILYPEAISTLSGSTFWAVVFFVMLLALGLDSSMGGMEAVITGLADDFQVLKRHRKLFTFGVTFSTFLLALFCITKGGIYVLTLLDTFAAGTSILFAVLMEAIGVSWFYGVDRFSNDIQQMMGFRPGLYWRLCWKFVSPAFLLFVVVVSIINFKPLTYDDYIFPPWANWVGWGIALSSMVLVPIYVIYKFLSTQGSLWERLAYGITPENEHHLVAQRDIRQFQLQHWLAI

Molecule	Target Desc	AC50
CSCC[C@H](NC(=O)[C@H](Cc1c[nH]c2ccccc12)NC(=O)CCNC(=O)OC(C)(C)C)C(=O)N[C@@H](CC(=O)O)C(=O)N[C@@H](Cc1ccccc1)C(N)=O	UniProtKB P23975	> 10 µM
CC(C(=O)O)c1ccc(-c2ccccc2)c(F)c1 (stereo not drawn)	UniProtKB P23975	> 10 µM
Clc1ccc2c(N3CCN(CCCN4CCN(c5ccnc6cc(Cl)ccc56)CC4)CC3)ccnc2c1	UniProtKB P23975	> 30 µM
CCCCCCCCCCCCCCCCCCCCCC(=O)Nc1ccn([C@@H]2O[C@H](CO)[C@@H](O)[C@@H]2O)c(=O)n1	UniProtKB P23975	> 30 µM
CC(=O)[C@]1(O)Cc2c(O)c3c(c(O)c2[C@@H](O[C@H]2C[C@H](N)[C@H](O)[C@H](C)O2)C1)C(=O)c1ccccc1C3=O	UniProtKB P23975	8.7 µM
CC(C)[C@H](N)C(=O)OCC(CO)OCn1cnc2c(=O)nc(N)[nH]c21 (stereo partly drawn)	UniProtKB P23975	> 30 µM
C#C[C@]1(OC(C)=O)CC[C@H]2[C@@H]3CCC4=C/C(=N/O)CC[C@@H]4[C@H]3CC[C@@]21CC [NORGESTIMATE]	UniProtKB P23975	28 µM
CC(N)C12CC3CC(CC(C3)C1)C2 (stereo not drawn)	UniProtKB P23975	> 10 µM
CN(C(=O)c1c(O)c2ccccc2n(C)c1=O)c1ccccc1	UniProtKB P23975	> 30 µM
C=C1/C(=C\C=C2/CCC[C@]3(C)[C@@H]([C@H](C)/C=C/[C@@H](O)C4CC4)CC[C@@H]23)C[C@@H](O)C[C@@H]1O	UniProtKB P23975	20 µM
C[N@+]1(CCF)[C@@H]2CC[C@H]1C[C@@H](OC(=O)C(O)(c1ccccc1)c1ccccc1)C2	UniProtKB P23975	> 30 µM
C#CCOc1ccc(N)cc1C(=O)NCCCC [PARSALMIDE]	UniProtKB P23975	> 30 µM
CC(=O)SC[C@@H](C)C(=O)N1CCC[C@H]1C(=O)N[C@@H](Cc1ccccc1)C(=O)O	UniProtKB P23975	> 30 µM

----------
- Target Desc: Growth hormone secretagogue receptor type 1 (Homo sapiens); also: assay procedure not described here
- Sequence (Q92847 whole entry): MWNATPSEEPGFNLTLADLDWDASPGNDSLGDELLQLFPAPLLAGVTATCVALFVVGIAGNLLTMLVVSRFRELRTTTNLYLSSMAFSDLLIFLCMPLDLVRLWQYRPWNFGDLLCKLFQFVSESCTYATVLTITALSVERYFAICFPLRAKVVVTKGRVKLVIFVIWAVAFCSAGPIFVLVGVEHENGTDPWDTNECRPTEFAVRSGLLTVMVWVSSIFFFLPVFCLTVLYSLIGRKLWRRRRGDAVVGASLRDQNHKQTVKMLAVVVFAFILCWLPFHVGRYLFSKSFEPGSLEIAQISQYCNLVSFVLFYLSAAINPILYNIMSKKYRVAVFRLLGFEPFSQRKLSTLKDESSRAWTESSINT
Measured Parameter: AC50

Molecule	Measured Parameter	Measured
Cc1cc(C(C)(C)C)cc(C)c1CC1=NCCN1 [XYLOMETAZOLINE]	AC50	> 30 µM
Clc1ccc2c(N3CCN(CCCN4CCN(c5ccnc6cc(Cl)ccc56)CC4)CC3)ccnc2c1 [PIPERAQUINE]	AC50	> 30 µM
C[C@]12CCC(=O)C(O)=C1CC[C@@H]1[C@@H]2CC[C@]2(C)C(=O)CC[C@@H]12 [FORMESTANE]	AC50	> 30 µM
C[N@+]1(CCF)[C@@H]2CC[C@H]1C[C@@H](OC(=O)C(O)(c1ccccc1)c1ccccc1)C2	AC50	> 30 µM
CNCc1ccc(-c2[nH]c3cc(F)cc4c3c2CCNC4=O)cc1 [RUCAPARIB]	AC50	> 30 µM
C[C@H]1c2cccc(O)c2C(=O)C2=C(O)[C@]3(O)C(=O)C(C(N)=O)=C(O)[C@@H](N(C)C)[C@@H]3[C@@H](O)[C@@H]21 [DOXYCYCLINE]	AC50	> 30 µM
C#CCOc1ccc(N)cc1C(=O)NCCCC [PARSALMIDE]	AC50	> 30 µM
O=C1CN=C(c2ccccn2)c2cc(Br)ccc2N1 [BROMAZEPAM]	AC50	> 10 µM
CC(N)C12CC3CC(CC(C3)C1)C2 (centres undefined) [RIMANTADINE]	AC50	> 10 µM

----------
AC50 overview
- Target Desc: Type-1 angiotensin II receptor (Homo sapiens); also: assay procedure not described here
- Sequence (P30556 whole entry): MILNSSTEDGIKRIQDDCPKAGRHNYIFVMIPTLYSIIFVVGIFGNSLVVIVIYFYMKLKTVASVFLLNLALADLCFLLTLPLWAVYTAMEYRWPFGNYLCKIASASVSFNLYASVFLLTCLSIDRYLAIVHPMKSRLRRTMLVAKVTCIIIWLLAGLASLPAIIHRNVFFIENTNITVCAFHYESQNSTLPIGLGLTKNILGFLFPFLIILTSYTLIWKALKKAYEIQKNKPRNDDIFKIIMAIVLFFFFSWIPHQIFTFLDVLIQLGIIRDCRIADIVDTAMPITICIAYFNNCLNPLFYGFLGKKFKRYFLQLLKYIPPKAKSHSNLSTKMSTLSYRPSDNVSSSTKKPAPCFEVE
Measured Parameter: AC50

Molecule	Measured
COc1cc2c(cc1OC)C(CCc1ccc(Cl)cc1)N(C)CC2 (centres undefined) [METHOPHOLINE]	> 30 µM
CC(S)C(=O)NCC(=O)O (centres undefined) [TIOPRONIN]	> 30 µM
O=C1CN(/N=C/c2ccc(-c3ccc([N+](=O)[O-])cc3)o2)C(O)=N1 [DANTROLENE]	> 10 µM
CN(C)CCCNc1c2ccccc2nc2cccc([N+](=O)[O-])c12 [NITRACRINE]	> 30 µM

----------
AC50 overview
- Target Desc: Adenosine receptor A3 (Homo sapiens, UniProt P0DMS8); also: assay procedure not described here
- Sequence (P0DMS8 whole entry): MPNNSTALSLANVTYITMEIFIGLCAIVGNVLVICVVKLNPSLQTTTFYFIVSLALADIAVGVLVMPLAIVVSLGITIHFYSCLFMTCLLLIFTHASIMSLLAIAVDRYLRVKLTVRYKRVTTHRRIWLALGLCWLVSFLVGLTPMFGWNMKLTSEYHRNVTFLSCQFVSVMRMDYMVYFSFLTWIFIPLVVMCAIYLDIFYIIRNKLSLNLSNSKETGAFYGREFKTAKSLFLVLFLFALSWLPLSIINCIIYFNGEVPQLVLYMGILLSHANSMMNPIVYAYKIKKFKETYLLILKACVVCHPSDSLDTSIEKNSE

Compound	Target Desc	AC50
CN(C)CCCNc1c2ccccc2nc2cccc([N+](=O)[O-])c12 [NITRACRINE]	Adenosine receptor A3 (Homo sapiens, UniProt P0DMS8)	> 30 µM
CC(=O)[C@@]1(O)CC[C@H]2[C@@H]3C=C(Cl)C4=CC(=O)[C@@H]5C[C@@H]5[C@]4(C)[C@H]3CC[C@@]21C [CYPROTERONE]	Adenosine receptor A3 (Homo sapiens, UniProt P0DMS8)	> 10 µM
CC(C)(C)NCC(O)c1cc(O)cc(O)c1 (stereo unspecified) [TERBUTALINE]	Adenosine receptor A3 (Homo sapiens, UniProt P0DMS8)	> 30 µM
O=C(O)CCNC(=O)c1ccccc1 [BETAMIPRON]	Adenosine receptor A3 (Homo sapiens, UniProt P0DMS8)	> 30 µM
Cc1cccc(N2CC(CO)OC2=O)c1 (stereo unspecified) [TOLOXATONE]	Adenosine receptor A3 (Homo sapiens, UniProt P0DMS8)	> 30 µM
CC(=O)O[C@H](CC(=O)[O-])C[N+](C)(C)C [ACETYLCARNITINE]	Adenosine receptor A3 (Homo sapiens, UniProt P0DMS8)	> 30 µM
CCCC(CCC)C(N)=O [VALPROMIDE]	Adenosine receptor A3 (Homo sapiens, UniProt P0DMS8)	> 30 µM
Cc1cnc(C(=O)NCCc2ccc(S(=O)(=O)NC(=O)NC3CCCCC3)cc2)cn1 [GLIPIZIDE]	Adenosine receptor A3 (Homo sapiens, UniProt P0DMS8)	> 30 µM
CCN(CC)CCNC(=O)c1c(C)[nH]c(/C=C2\C(=O)Nc3ccc(F)cc32)c1C [SUNITINIB]	Adenosine receptor A3 (Homo sapiens, UniProt P0DMS8)	8.4 µM
O=C1CN=C(c2ccccc2)c2cc([N+](=O)[O-])ccc2N1 [NITRAZEPAM]	Adenosine receptor A3 (Homo sapiens, UniProt P0DMS8)	> 10 µM
CN1CCC(=C2c3ccccc3CCc3cccnc32)CC1 [AZATADINE]	Adenosine receptor A3 (Homo sapiens, UniProt P0DMS8)	> 30 µM
CC(C)NCC(O)c1ccc(O)c(O)c1 (stereo unspecified) [ISOPROTERENOL]	Adenosine receptor A3 (Homo sapiens, UniProt P0DMS8)	20.3 µM
C=C[C@H]1C[N@@]2CC[C@H]1C[C@@H]2[C@@H](O)c1ccnc2ccc(OC)cc12 [QUINIDINE]	Adenosine receptor A3 (Homo sapiens, UniProt P0DMS8)	> 30 µM
COc1cc2nc(N3CCN(C(=O)C4CCCO4)CC3)nc(N)c2cc1OC (stereo unspecified) [TERAZOSIN]	Adenosine receptor A3 (Homo sapiens, UniProt P0DMS8)	> 30 µM
CCC(=O)O[C@H]1CC[C@H]2[C@@H]3CCC4=CC(=O)CC[C@]4(C)[C@H]3CC[C@]12C [TESTOSTERONE PROPIONATE]	Adenosine receptor A3 (Homo sapiens, UniProt P0DMS8)	> 10 µM
CC1OC2(CS1)CN1CCC2CC1 (stereo unspecified) [CEVIMELINE]	Adenosine receptor A3 (Homo sapiens, UniProt P0DMS8)	> 10 µM
